Test system: MS2 coat protein
method summary: apparent KD of MS2 coat protein; designed switch direction (-1 OFF switch, 1 ON switch): 1; higher = weaker reporter binding
particulars: input ligand: none
reported property: apparent KD of MS2 coat protein

Ask: Identify the measured apparent KD of MS2 coat protein of AAGCUGUGUGUAUGGUCAUUGUCAACGGUACAUGAGGAUCACCCAUGUAGCAUUAACCAUCCGACUCUGUUGGAGGU [high scoring solution 6] (Eterna round: R96, puzzle: Sensor for hsa-mir-208a) for MS2 coat protein.
Result: 51.7 nM

Ask: Under MS2 coat protein: apparent KD of MS2 coat protein value of UAAGUAUGUUGAGGAUAUUAUGUCAAGAGAGAUGACAUGAGGAUCACCCAUGUGUGAAGAGGAUUUAAGAAGGCAACAUACUUA [JR_SSNG2_Sub090] (Eterna round: R96, puzzle: Same State NG 2) ?
Result: 66.7 nM

Ask: Lab note: need apparent KD of MS2 coat protein with MS2 coat protein for entry GAUCGUUUGAUAGGAUAUCGCUAUACAUGAGGAUCACCCAUGUUUACCACGCUGGUUUUUCAUACCGAGAAGGAUUCUGAUGAA [salish99_SSNG02_r04_010] (Eterna round: R96, puzzle: Same State NG 2) , please look it up.
Result: 30.7 nM

Ask: Query the reported apparent KD of MS2 coat protein for MS2 coat protein; item: GCACUGGCGGUAGGAUAUCUAGGAUAUGGGAAAGACUAAGUCUGUAGGUCACCUAACCCAGAAGGAGAGAAGGACACCGAAAGG [pwkr ssNG2 2FMN + F9.20] (Eterna round: R96, puzzle: Same State NG 2)
Result: 12.9 nM

FYI, the data here is from the supplement of paper PMC9170038.
